Known pIC50 of a selection of compounds
- assayedSystem: (Homo sapiens)
- Construct: human IGF1R kinase domain residues M954-C1367; made in house; host or cells: baculovirus expression (insect cells)
- Sequence (P08069 954-1367): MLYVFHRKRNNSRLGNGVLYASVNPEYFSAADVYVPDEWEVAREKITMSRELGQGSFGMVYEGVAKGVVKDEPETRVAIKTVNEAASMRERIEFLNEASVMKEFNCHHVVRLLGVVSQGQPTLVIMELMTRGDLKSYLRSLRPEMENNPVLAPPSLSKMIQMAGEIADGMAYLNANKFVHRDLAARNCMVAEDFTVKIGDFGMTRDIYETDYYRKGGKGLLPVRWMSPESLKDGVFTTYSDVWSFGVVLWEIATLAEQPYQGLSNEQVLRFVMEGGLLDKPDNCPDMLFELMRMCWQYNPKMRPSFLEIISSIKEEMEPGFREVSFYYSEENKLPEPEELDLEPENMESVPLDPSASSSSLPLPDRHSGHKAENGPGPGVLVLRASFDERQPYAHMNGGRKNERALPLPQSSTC
- protocolText: IGF1R kinase assay (LCCA), IGF 0P
- Type: biochemical
- assayContext: IGF1R kinase LCCA assay
pIC50: −log10 of the molar value.

1) Cc1ccc(C(C)C)cc1Nc1ncc(Br)c(Nc2cc(C3CC3)n[nH]2)n1 ... 5.30 to 6.30
2) Brc1cnc(Nc2ccccc2N2CCOCC2)nc1Nc1cc(C2CC2)n[nH]1 ... < 5.30
3) CCN(CC)CCCNC(=O)c1ccc(Nc2nccc(Nc3cc(C4CC4)n[nH]3)n2)cc1 ... 5.30 to 6.30
4) N#Cc1ccc(Nc2ncc(Br)c(Nc3cc(C4CC4)n[nH]3)n2)cc1 ... 5.30 to 6.30

## Input Annotate the compound Fc1ccc(Nc2ncc(Br)c(Nc3cc(C4CC4)n[nH]3)n2)c(Br)c1 with its measured pIC50.
## Output 6.30 to 7.30

## Input Annotate the compound Cc1cc(Nc2nc(Nc3ccccc3)ncc2Br)[nH]n1 with its measured pIC50.
## Output 5.30 to 6.30

## Input Annotate the compound Nc1ncnc2c1c(-c1cccc(OCc3ccccc3)c1)cn2CC1CC2CNCC2C1 (stereo not shown) with its measured pIC50.
## Output < 5.30

## Input Annotate the compound Clc1cccc(Nc2nc(Nc3ccccc3Cl)ncc2Br)c1 with its measured pIC50.
## Output 5.30 to 6.30

## Input Annotate the compound Cc1cc(Nc2cc(C3CC3)[nH]n2)nc(NCc2cc(-c3ccc(Cl)cc3)no2)n1 with its measured pIC50.
## Output 6.30 to 7.30

## Input Annotate the compound CN1CCN(c2ncc(Br)c(Nc3cc(C4CC4)[nH]n3)n2)CC1 with its measured pIC50.
## Output < 5.30

----------
- assayedSystem: IGF 3P (Homo sapiens, UniProt P08069)
- Construct: human IGF1R kinase domain residues M954-C1367; made in house; host or cells: baculovirus expression (insect cells)
- Sequence (P08069 954-1367): as above
- protocolText: IGF1R kinase assay (LCCA), IGF 3P
- Assay type: biochemical
- Protocol: Kinase activity and compound inhibition are investigated using one or more of the three assay formats described below. The ATP concentrations for each assay are selected to be close to the Michaelis-Menten constant (KM) for each individual kinase. […] IGF1R kinase biochemical activity was assessed using a Luciferase-Coupled Chemiluminescent Kinase assay (LCCA) format. Kinase activity was measured as the percent ATP remaining following the kinase reaction. […]
pIC50: −log10 of the molar value.
Known pIC50 of a selection of molecules

## Input Annotate the molecule Cc1cc(Nc2cc(C3CC3)[nH]n2)nc(NCc2cc(-c3cnccn3)no2)n1 [Example 623] with its measured pIC50.
## Output > 7.30

## Input Annotate the molecule CN1CCN(c2cc(Nc3cc(C4CC4)[nH]n3)nc(NCc3cc(-c4ccoc4)no3)n2)CC1 [Example 629] with its measured pIC50.
## Output > 7.30

## Input Annotate the molecule Cc1cc(Nc2cc(C3CC3)[nH]n2)nc(NCc2cc(-c3ccc(F)cn3)no2)n1 [Example 639] with its measured pIC50.
## Output 5.30 to 6.30

----------
Known IC50 of a selection of molecules
- assayedSystem: IGF 3P (Homo sapiens)
- Construct: human IGF1R kinase domain residues M954-C1367; made in house; host or cells: baculovirus expression (insect cells)
- protocolText: IGF1R kinase assay (LCCA), IGF 3P
- Assay type: biochemical
- assayContext: IGF1R kinase LCCA assay

1) CC(C)CNc1ncc(Br)c(Nc2cc(C3CC3)[nH]n2)n1 ... 0.05 to 0.5 µM
2) CN1CCN(C(=O)Cc2ccc(Nc3ncc(Br)c(Nc4cc(C5CC5)n[nH]4)n3)cc2)CC1 ... 0.05 to 0.5 µM
3) Cc1cc(Nc2cc(C3CC3)n[nH]2)nc(Nc2ccc3c(c2)CNCC3)n1 ... 0.05 to 0.5 µM
4) Cc1cc(Nc2cc(C(C)C)[nH]n2)nc(NCc2cc(C(C)C)no2)n1 ... < 0.05 µM
5) Cc1cc(Nc2cc(C3CC3)[nH]n2)nc(NCc2cc(C(C)C)no2)n1 ... < 0.05 µM
6) Brc1cnc(Nc2cccc(OCc3ccccc3)c2)nc1Nc1cc(C2CC2)n[nH]1 ... > 5 µM
7) Nc1ncnc2c1c(-c1cccc(OCc3ccccc3)c1)cn2CC1CC2CNCC2C1 (centres unmarked) ... > 5 µM

Proceed to the following item.
## Input Annotate the molecule O=S(=O)(c1ccc(Nc2ncc(Br)c(Nc3cc(C4CC4)n[nH]3)n2)cc1)N1CCOCC1 with its measured IC50.
## Output 0.05 to 0.5 µM
